# Kd listing for each entry below
Molecular target: MAP3K5 (human)

- smiles: "CCOc1cc2ncc(C#N)c(Nc3ccc(F)c(Cl)c3)c2cc1NC(=O)/C=C/CN(C)C"
  Kd: "> 10 µM"
- smiles: "Oc1ccc(-c2nc(-c3ccc(F)cc3)c(-c3ccncc3)[nH]2)cc1"
  Kd: "> 10 µM"

###

Biological target: MAP4K5 (human) (UniProt Q9Y4K4)
Sequence (Q9Y4K4 whole entry, looked up): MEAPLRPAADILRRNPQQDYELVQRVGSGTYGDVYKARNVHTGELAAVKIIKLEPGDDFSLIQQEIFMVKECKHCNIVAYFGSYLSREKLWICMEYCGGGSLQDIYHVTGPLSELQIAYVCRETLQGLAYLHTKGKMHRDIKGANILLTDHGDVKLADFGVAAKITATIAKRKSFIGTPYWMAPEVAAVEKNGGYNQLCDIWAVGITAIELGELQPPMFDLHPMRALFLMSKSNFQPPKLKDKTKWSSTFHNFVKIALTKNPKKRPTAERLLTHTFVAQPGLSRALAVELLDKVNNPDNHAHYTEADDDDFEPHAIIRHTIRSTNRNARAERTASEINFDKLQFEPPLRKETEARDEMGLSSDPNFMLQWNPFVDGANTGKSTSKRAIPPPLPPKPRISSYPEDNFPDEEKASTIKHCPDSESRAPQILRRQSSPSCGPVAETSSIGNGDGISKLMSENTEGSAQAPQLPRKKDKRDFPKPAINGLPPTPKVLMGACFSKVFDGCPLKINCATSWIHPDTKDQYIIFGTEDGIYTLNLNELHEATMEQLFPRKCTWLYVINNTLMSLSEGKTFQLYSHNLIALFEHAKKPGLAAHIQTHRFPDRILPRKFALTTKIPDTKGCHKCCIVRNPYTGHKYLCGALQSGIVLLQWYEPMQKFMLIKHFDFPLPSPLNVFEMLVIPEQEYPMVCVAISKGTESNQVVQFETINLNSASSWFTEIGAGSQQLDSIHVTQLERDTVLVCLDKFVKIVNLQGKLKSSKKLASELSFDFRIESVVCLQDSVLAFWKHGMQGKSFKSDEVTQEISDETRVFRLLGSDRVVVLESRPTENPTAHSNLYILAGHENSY

- smiles: "Oc1ccc(-c2nc(-c3ccc(F)cc3)c(-c3ccncc3)[nH]2)cc1"
  targetEntity: "MAP4K5 (human) (UniProt Q9Y4K4)"
  Kd: "> 10 µM"

###

Biological target: MAPK10 (human)
readout: Kd

- smiles: "CCOc1cc2ncc(C#N)c(Nc3ccc(F)c(Cl)c3)c2cc1NC(=O)/C=C/CN(C)C"
  result: "> 10 µM"

###

Target: ULK3 (human) (UniProt Q6PHR2)

- smiles: "Oc1ccc(-c2nc(-c3ccc(F)cc3)c(-c3ccncc3)[nH]2)cc1"
  Kd: "> 10 µM"

###

Target: YES1 (human) (UniProt P07947)

- smiles: "Oc1ccc(-c2nc(-c3ccc(F)cc3)c(-c3ccncc3)[nH]2)cc1"
  targetEntity: "YES1 (human) (UniProt P07947)"
  Kd: "> 10 µM"

###

Target: UniProt:Q8TD19
Sequence (Q8TD19 whole entry, looked up): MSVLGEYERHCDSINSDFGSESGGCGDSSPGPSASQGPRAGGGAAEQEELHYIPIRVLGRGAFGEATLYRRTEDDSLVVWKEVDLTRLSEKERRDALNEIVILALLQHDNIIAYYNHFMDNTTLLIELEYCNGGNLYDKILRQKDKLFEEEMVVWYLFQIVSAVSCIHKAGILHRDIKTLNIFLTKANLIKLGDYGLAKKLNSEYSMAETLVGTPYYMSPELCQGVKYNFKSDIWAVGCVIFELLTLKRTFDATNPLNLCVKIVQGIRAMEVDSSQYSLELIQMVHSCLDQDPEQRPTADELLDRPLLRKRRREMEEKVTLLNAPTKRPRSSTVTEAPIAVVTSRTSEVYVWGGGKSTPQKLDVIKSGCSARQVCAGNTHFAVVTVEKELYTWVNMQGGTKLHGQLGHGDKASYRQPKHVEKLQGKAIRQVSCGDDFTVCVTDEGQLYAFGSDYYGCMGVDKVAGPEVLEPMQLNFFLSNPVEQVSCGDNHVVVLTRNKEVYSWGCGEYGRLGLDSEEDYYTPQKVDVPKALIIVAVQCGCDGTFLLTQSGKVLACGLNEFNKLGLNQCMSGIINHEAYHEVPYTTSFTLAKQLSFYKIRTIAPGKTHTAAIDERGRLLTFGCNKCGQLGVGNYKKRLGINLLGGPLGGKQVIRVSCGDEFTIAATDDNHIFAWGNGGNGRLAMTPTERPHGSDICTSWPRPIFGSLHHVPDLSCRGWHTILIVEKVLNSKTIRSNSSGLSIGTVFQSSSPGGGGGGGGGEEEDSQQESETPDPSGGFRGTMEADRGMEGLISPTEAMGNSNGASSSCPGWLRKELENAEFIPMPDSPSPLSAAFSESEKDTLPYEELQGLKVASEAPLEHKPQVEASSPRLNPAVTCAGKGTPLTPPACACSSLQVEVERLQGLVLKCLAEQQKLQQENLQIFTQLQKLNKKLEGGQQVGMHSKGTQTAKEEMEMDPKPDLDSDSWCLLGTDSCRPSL
pKd: −log10 of the molar value.

- smiles: "O=C1c2ccccc2-c2n[nH]c3cccc1c23"
  pKd: "< 5.00"
- smiles: "CCOc1cc2ncc(C#N)c(Nc3ccc(F)c(Cl)c3)c2cc1NC(=O)/C=C/CN(C)C"
  pKd: "< 5.00"
- smiles: "Oc1ccc(-c2nc(-c3ccc(F)cc3)c(-c3ccncc3)[nH]2)cc1"
  pKd: "< 5.00"

###

Target: UniProt Q13153
pKd: −log10 of the molar value.
readout: pKd

- smiles: "Oc1ccc(-c2nc(-c3ccc(F)cc3)c(-c3ccncc3)[nH]2)cc1"
  targetEntity: "UniProt Q13153"
  readout: "pKd"
  result: "< 5.00"

###

Biological target: EPHA3 (human) (UniProt P29320)
pKd: −log10 of the molar value.

- smiles: "Oc1ccc(-c2nc(-c3ccc(F)cc3)c(-c3ccncc3)[nH]2)cc1"
  pKd: "< 5.00"

###

pKd: −log10 of the molar value.
Recorded below: pKd, system PDGFRB (human).
readout: pKd

- smiles: "CCOc1cc2ncc(C#N)c(Nc3ccc(F)c(Cl)c3)c2cc1NC(=O)/C=C/CN(C)C"
  result: "< 5.00"
- smiles: "O=C1c2ccccc2-c2n[nH]c3cccc1c23"
  result: "< 5.00"
- smiles: "Oc1ccc(-c2nc(-c3ccc(F)cc3)c(-c3ccncc3)[nH]2)cc1"
  result: "< 5.00"

###

Target: ABL1 (human), P00519 [E255K]
Experiment: KINOMEscan competition binding
readout: Kd

- smiles: "Oc1ccc(-c2nc(-c3ccc(F)cc3)c(-c3ccncc3)[nH]2)cc1"
  readout: "Kd"
  result: "> 10 µM"
- smiles: "O=C1c2ccccc2-c2n[nH]c3cccc1c23"
  readout: "Kd"
  result: "> 10 µM"

###

Target: CLK1 (human)

- smiles: "Oc1ccc(-c2nc(-c3ccc(F)cc3)c(-c3ccncc3)[nH]2)cc1"
  Kd: "> 10 µM"
- smiles: "O=C1c2ccccc2-c2n[nH]c3cccc1c23"
  Kd: "> 10 µM"

###

Molecular target: MAPK14 (human)
readout: Kd

- smiles: "CCOc1cc2ncc(C#N)c(Nc3ccc(F)c(Cl)c3)c2cc1NC(=O)/C=C/CN(C)C"
  readout: "Kd"
  result: "> 10 µM"

###

pKd: −log10 of the molar value.
Recorded below: pKd, system UniProt:P29322.

- smiles: "O=C1c2ccccc2-c2n[nH]c3cccc1c23"
  pKd: "< 5.00"
- smiles: "Oc1ccc(-c2nc(-c3ccc(F)cc3)c(-c3ccncc3)[nH]2)cc1"
  pKd: "< 5.00"

###

Target: TEK (human)
readout: Kd

- smiles: "Oc1ccc(-c2nc(-c3ccc(F)cc3)c(-c3ccncc3)[nH]2)cc1"
  result: "> 10 µM"
- smiles: "O=C1c2ccccc2-c2n[nH]c3cccc1c23"
  result: "> 10 µM"

###

Biological target: CSNK1G2 (human) (UniProt P78368)
Sequence (P78368 whole entry, looked up): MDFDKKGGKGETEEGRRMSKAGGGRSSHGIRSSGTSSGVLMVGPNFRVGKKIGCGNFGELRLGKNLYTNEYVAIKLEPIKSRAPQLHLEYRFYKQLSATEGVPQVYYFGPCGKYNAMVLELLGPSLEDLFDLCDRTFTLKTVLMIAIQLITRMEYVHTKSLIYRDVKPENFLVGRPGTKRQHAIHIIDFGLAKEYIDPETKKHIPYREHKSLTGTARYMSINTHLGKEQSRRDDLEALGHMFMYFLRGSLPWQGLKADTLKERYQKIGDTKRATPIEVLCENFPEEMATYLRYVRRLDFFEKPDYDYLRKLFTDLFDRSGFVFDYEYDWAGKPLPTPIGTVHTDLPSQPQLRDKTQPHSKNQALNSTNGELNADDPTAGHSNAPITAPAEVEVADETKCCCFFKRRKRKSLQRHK
Test: KINOMEscan competition binding
pKd: −log10 of the molar value.
readout: pKd

- smiles: "O=C1c2ccccc2-c2n[nH]c3cccc1c23"
  result: "< 5.00"

###

Biological target: LYN (human)

- smiles: "Oc1ccc(-c2nc(-c3ccc(F)cc3)c(-c3ccncc3)[nH]2)cc1"
  Kd: "> 10 µM"

###

Target: PTK6 (human)
pKd: −log10 of the molar value.
readout: pKd

- smiles: "CCOc1cc2ncc(C#N)c(Nc3ccc(F)c(Cl)c3)c2cc1NC(=O)/C=C/CN(C)C"
  result: "< 5.00"

###

# Kd listing for each entry below
Biological target: NTRK1 (human) (UniProt P04629)
Sequence (P04629 whole entry, looked up): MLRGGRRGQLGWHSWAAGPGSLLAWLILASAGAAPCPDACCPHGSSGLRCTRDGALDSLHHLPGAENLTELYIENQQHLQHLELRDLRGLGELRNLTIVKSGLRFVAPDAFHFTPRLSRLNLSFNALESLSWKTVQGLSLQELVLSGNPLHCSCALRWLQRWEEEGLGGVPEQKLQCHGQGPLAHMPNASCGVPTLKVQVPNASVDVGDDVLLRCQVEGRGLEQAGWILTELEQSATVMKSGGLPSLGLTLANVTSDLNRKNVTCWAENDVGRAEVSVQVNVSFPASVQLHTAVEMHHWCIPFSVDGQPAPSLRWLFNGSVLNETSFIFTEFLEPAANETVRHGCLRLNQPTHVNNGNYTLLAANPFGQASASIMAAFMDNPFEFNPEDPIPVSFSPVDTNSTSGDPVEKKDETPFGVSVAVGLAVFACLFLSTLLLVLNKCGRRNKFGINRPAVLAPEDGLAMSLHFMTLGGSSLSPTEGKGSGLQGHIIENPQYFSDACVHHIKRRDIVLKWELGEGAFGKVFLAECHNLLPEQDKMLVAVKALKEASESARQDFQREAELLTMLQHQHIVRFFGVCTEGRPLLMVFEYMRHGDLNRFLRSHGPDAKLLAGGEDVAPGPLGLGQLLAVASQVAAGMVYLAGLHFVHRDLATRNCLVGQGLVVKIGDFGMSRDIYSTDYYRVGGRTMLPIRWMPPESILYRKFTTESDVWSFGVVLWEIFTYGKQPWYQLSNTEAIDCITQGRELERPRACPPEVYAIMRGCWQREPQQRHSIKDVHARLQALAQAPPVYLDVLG
Experiment: KINOMEscan competition binding

- smiles: "CCOc1cc2ncc(C#N)c(Nc3ccc(F)c(Cl)c3)c2cc1NC(=O)/C=C/CN(C)C"
  targetEntity: "NTRK1 (human) (UniProt P04629)"
  Kd: "> 10 µM"
- smiles: "O=C1c2ccccc2-c2n[nH]c3cccc1c23"
  targetEntity: "NTRK1 (human) (UniProt P04629)"
  Kd: "> 10 µM"
- smiles: "Oc1ccc(-c2nc(-c3ccc(F)cc3)c(-c3ccncc3)[nH]2)cc1"
  targetEntity: "NTRK1 (human) (UniProt P04629)"
  Kd: "> 10 µM"

###

Target: ABL1 (human), P00519 [T315I]
Test: KINOMEscan competition binding
# Kd listing for each entry below

- smiles: "O=C1c2ccccc2-c2n[nH]c3cccc1c23"
  targetEntity: "ABL1 (human), P00519 [T315I]"
  Kd: "> 10 µM"
- smiles: "Oc1ccc(-c2nc(-c3ccc(F)cc3)c(-c3ccncc3)[nH]2)cc1"
  targetEntity: "ABL1 (human), P00519 [T315I]"
  Kd: "> 10 µM"

###

Recorded below: Kd, system CAMKK1 (human).

- smiles: "CCOc1cc2ncc(C#N)c(Nc3ccc(F)c(Cl)c3)c2cc1NC(=O)/C=C/CN(C)C"
  Kd: "> 10 µM"
- smiles: "Oc1ccc(-c2nc(-c3ccc(F)cc3)c(-c3ccncc3)[nH]2)cc1"
  Kd: "> 10 µM"
- smiles: "O=C1c2ccccc2-c2n[nH]c3cccc1c23"
  Kd: "> 10 µM"

###

# pKd listing for each entry below
Target: LIMK1 (human) (UniProt P53667)
Sequence (P53667 whole entry, looked up): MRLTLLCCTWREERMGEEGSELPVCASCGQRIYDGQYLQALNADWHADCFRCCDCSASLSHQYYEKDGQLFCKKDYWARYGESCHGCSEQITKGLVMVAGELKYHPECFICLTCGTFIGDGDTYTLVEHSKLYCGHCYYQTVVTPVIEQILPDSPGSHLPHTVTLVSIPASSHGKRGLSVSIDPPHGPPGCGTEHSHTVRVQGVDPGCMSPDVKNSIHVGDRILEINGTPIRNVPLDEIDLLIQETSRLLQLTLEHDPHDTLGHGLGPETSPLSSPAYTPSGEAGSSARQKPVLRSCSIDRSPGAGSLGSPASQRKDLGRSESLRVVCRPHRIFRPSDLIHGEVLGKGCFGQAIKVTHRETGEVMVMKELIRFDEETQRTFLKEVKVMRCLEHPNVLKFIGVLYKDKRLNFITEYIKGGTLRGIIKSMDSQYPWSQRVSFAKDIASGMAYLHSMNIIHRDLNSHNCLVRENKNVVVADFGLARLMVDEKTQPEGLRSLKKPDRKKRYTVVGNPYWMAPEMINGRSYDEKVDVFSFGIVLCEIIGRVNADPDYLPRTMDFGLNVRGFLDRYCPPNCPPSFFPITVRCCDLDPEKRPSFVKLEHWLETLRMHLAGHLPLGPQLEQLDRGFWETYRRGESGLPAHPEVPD
pKd: −log10 of the molar value.

- smiles: "CCOc1cc2ncc(C#N)c(Nc3ccc(F)c(Cl)c3)c2cc1NC(=O)/C=C/CN(C)C"
  pKd: "< 5.00"
- smiles: "Oc1ccc(-c2nc(-c3ccc(F)cc3)c(-c3ccncc3)[nH]2)cc1"
  pKd: "< 5.00"
- smiles: "O=C1c2ccccc2-c2n[nH]c3cccc1c23"
  pKd: "< 5.00"

###

Recorded below: pKd, system CAMK2A (human) (UniProt Q9UQM7).
pKd: −log10 of the molar value.

- smiles: "O=C1c2ccccc2-c2n[nH]c3cccc1c23"
  pKd: "< 5.00"
- smiles: "Oc1ccc(-c2nc(-c3ccc(F)cc3)c(-c3ccncc3)[nH]2)cc1"
  pKd: "< 5.00"
- smiles: "CCOc1cc2ncc(C#N)c(Nc3ccc(F)c(Cl)c3)c2cc1NC(=O)/C=C/CN(C)C"
  pKd: "< 5.00"

###

Recorded below: Kd, system UniProtKB O14965.
Sequence (O14965 whole entry, looked up): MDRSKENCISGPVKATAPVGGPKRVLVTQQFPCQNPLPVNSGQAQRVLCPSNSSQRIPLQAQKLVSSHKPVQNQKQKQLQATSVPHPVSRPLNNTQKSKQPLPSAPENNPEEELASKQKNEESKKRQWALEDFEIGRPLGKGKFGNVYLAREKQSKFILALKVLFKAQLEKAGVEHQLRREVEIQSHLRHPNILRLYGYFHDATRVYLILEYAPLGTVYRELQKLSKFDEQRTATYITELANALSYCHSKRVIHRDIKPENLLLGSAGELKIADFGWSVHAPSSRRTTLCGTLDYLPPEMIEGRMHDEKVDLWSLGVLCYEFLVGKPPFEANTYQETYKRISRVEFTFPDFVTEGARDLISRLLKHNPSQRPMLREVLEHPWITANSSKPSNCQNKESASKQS
readout: Kd

- smiles: "CCOc1cc2ncc(C#N)c(Nc3ccc(F)c(Cl)c3)c2cc1NC(=O)/C=C/CN(C)C"
  targetEntity: "UniProtKB O14965"
  result: "> 10 µM"
- smiles: "Oc1ccc(-c2nc(-c3ccc(F)cc3)c(-c3ccncc3)[nH]2)cc1"
  targetEntity: "UniProtKB O14965"
  result: "> 10 µM"

###

Target: PKMYT1 (human)
pKd: −log10 of the molar value.
# pKd listing for each entry below

- smiles: "Oc1ccc(-c2nc(-c3ccc(F)cc3)c(-c3ccncc3)[nH]2)cc1"
  pKd: "< 5.00"
- smiles: "O=C1c2ccccc2-c2n[nH]c3cccc1c23"
  pKd: "< 5.00"

###

# Kd listing for each entry below
Target: FGFR2 (human) (UniProt P21802)
Sequence (P21802 whole entry, looked up): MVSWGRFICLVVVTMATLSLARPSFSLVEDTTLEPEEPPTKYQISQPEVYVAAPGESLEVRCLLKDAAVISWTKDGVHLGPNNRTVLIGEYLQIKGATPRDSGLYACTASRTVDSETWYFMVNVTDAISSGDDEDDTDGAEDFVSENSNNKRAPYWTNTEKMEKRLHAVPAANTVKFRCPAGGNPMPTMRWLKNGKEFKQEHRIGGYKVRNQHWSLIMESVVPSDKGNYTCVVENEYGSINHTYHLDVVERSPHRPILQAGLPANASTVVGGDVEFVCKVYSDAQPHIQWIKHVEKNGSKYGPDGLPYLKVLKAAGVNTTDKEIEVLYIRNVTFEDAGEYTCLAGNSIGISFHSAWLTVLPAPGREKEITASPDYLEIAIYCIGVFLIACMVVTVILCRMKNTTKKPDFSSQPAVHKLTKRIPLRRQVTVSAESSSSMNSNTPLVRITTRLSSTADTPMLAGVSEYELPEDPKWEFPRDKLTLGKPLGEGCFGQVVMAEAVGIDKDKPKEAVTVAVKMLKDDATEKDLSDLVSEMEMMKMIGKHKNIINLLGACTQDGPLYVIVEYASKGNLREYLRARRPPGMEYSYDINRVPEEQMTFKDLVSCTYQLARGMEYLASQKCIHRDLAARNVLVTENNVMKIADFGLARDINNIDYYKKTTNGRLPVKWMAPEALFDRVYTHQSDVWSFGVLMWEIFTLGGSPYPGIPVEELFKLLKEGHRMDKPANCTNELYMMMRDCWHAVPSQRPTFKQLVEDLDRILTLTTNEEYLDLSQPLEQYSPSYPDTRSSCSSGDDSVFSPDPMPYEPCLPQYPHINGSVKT

- smiles: "CCOc1cc2ncc(C#N)c(Nc3ccc(F)c(Cl)c3)c2cc1NC(=O)/C=C/CN(C)C"
  Kd: "> 10 µM"
- smiles: "Oc1ccc(-c2nc(-c3ccc(F)cc3)c(-c3ccncc3)[nH]2)cc1"
  Kd: "> 10 µM"

###

pKd: −log10 of the molar value.
Recorded below: pKd, system CDK2 (human).
readout: pKd

- smiles: "CCOc1cc2ncc(C#N)c(Nc3ccc(F)c(Cl)c3)c2cc1NC(=O)/C=C/CN(C)C"
  targetEntity: "CDK2 (human)"
  readout: "pKd"
  result: "< 5.00"
- smiles: "Oc1ccc(-c2nc(-c3ccc(F)cc3)c(-c3ccncc3)[nH]2)cc1"
  targetEntity: "CDK2 (human)"
  readout: "pKd"
  result: "< 5.00"
